Items are presented alongside their recorded growth.
System: HS 578T breast
protocol_notes: NCI-60 one-dose screen, 48 h (100 = growth as untreated, 0 = no growth, -100 = all killed)
assay_context: 10 µM unless noted
The panel holds about 83,000 compounds, 20% with a hit somewhere; the sample as a whole holds those more often. Calls of active or inactive are those of the source. How the source made its calls: active means growth percent below 10; inactive means the rest.

> print(dat)
                                   compound  experimental.value
1      O=C(/C=C/c1ccc(Cl)nc1)c1ccc(Cl)cc1Cl     110% (inactive)
2  CCC1(C2CCCC2)NC(=O)NC1=O (stereo not given)    98.9% (inactive)
3  CNS(=O)(=O)c1n[nH]nc1-c1cc(C(C)(C)C)c(O)c(C(C)(C)C)c1     102% (inactive)
4          c1ccc2cc3nc4cc5ccccc5cc4nc3cc2c1     102% (inactive)

Now look at this one.
Input: I'd like to know its growth. The compound in question is `COc1ccc(-c2ccc3c(c2)sc2nc(-c4ccc(F)cc4)cn23)cc1`
Output: 99.2% (inactive)

* * *

System: M14 melanoma
protocol_notes: NCI-60 one-dose screen, 48 h (100 = growth as untreated, 0 = no growth, -100 = all killed)
assay_context: 10 µM unless noted
This is part of a sample that, as a whole, favours compounds with a hit. Of some 83,000 tested, about 20% had one in any assay.
Items are presented alongside their recorded growth.
Numeric only. Scale: %

> print(dat)
                            chemical.smiles  experimental.value
1  COc1ccc(S(=O)(=O)NCCNc2nccc(-c3c(-c4cccc(F)c4)nc4sccn34)n2)cc1                38.4
2  CCCCCCN(CCCCCC)c1ccc(/C=C2/SC(=O)N(c3nc(N4CCCC4)nc(N4CCCC4)n3)C2=O)c(C)c1                69.3
3  Cc1nn(-c2ccccc2)c(Oc2ccc(Cl)cc2)c1/C=N\N=c1/sc2ccccc2n1C                87.4

Input: I'd like to know its growth. The compound in question is `CCOC(=O)C/C(C)=N\NC(=O)c1ccncc1`
Output: 106

Input: I'd like to know its growth. The compound in question is `N#C/C(=C\c1ccc2c(c1)OCO2)n1nnc2cc(F)c(F)cc21`
Output: 57

* * *

Test system: DU-145 prostate
protocol_notes: NCI-60 one-dose screen, 48 h
assay_context: 10 µM unless noted
Compounds without any hit were thinned out: in the full panel of roughly 83,000, 20% have a hit. Activity calls are given as the source filed them. The calls were made as follows: active = growth percent below 10; inactive = the rest.
Form entry, call: pick from active, inactive

> print(dat)
                                   compound  system.under.test  assigned.class
1      COc1ccc(-c2nc3c(N)c(CO)c(C)nc3o2)cc1    DU-145 prostate        inactive
2  COc1cccc(-c2nc3sccn3c2-c2ccnc(NCCNS(=O)(=O)c3cccc(Cl)c3)c2)c1    DU-145 prostate        inactive
3     Cc1ccccc1NC(=O)N/C(N)=N/c1nc(C)c(C)s1    DU-145 prostate        inactive
4  O=C(NC(CSSCC(NC(=O)c1ccccc1)C(=O)O)C(=O)O)c1ccccc1 (stereo not drawn)    DU-145 prostate        inactive
5  O=[N+]([O-])c1ccc(N2c3ccncc3Sc3ccncc32)cc1    DU-145 prostate        inactive

Input: Name the outcome recorded for `COc1cc(/C=N/Nc2ncc(-c3cc4cc5c(cc4o3)OCO5)s2)cc(OC)c1OC` in the assay.
Output: inactive

Input: Name the outcome recorded for `c1c[nH]c(CNC2CCCCC2)c1` in the assay.
Output: inactive

Input: Name the outcome recorded for `O=C(NCCNc1cc(-c2cn(-c3ccccc3)nc2-c2cccc(O)c2)ccn1)Nc1ccccc1` in the assay.
Output: inactive

Input: Name the outcome recorded for `CCN1CCN(c2cc(C)nc(NCc3cc(Nc4ccnc5cc(Cl)ccc45)ccc3F)n2)CC1` in the assay.
Output: inactive

Input: Name the outcome recorded for `Cc1c2c(c(C)c3c1oc1cc(O)ccc13)C(=O)N(CCN1CCCCC1)C2=O` in the assay.
Output: inactive

Input: Name the outcome recorded for `CC/C=C\C[C@H](O)C/C=C1/C(=O)C=C[C@@H]1C/C=C\CCCC(=O)OC` in the assay.
Output: inactive

Input: Name the outcome recorded for CCC(CO)Nc1nc2ccc(Cl)cc2c2ccccc12 (stereo not drawn) in the assay.
Output: inactive

Input: Name the outcome recorded for COc1ccc(-c2nc3c(c(=O)n2C(C)=O)C(c2ccc(Cl)cc2)c2sc4c(Cl)cccc4c2O3)cc1 (stereo not drawn) in the assay.
Output: active

Input: Name the outcome recorded for `Cc1cc(NCc2cc(Nc3ccnc4cc(Cl)ccc34)ccc2F)nc(N2CCCC2)n1` in the assay.
Output: inactive

Input: Name the outcome recorded for `CNC(=O)c1cc(Oc2ccc3nc(Nc4ccc(Cl)c(C(F)(F)F)c4)ccc3c2)ccn1` in the assay.
Output: inactive

Input: Name the outcome recorded for `S=C(c1ccc2c(c1)OCO2)N1CCN(c2ccccc2Cl)CC1` in the assay.
Output: inactive

Input: Name the outcome recorded for CCCCOc1nc2ccccc2cc1C1CNC(=O)c2ccccc2N1 (stereo not drawn) in the assay.
Output: inactive

Input: Name the outcome recorded for CCN1C(=O)N(CC)C2C1NN=c1s/c(=C\c3cccs3)c(=O)n12 (stereo not drawn) in the assay.
Output: inactive

* * *

System: SF-268 CNS
protocol_notes: NCI-60 one-dose screen, 48 h
assay_context: 10 µM unless noted
About 83,000 compounds went through this panel and 20% of them were active in at least one assay; those are over-represented in the sample as a whole. Calls of active or inactive are those of the source. The calls were made as follows: active = growth percent below 10; inactive = the rest.
Form entry, call: pick from 1 (yes) = active, 0 (no) = inactive

Example cases with answers are listed next.
> print(dat)
                                   compound  assigned.class
1                      O=Cc1ccc(O)c2ncccc12          0 (no)
2  Cc1cc[c-]cc1.Fc1c[c-]c(-c2ccccn2)c(F)c1.[Pt+2].c1ccc(P(C[PH+](c2ccccc2)c2ccccc2)c2ccccc2)cc1         1 (yes)
3  COc1ccc(C2=NN(C(=O)c3cc(OC)c(OC)c(OC)c3)C(c3ccc(Cl)cc3)C2)cc1OC (stereo not drawn)          0 (no)
4        N#Cc1c(-c2ccccn2)[nH]c(=S)[nH]c1=O          0 (no)
5  Cc1ccc2nc(NC(=O)CSc3nc(Nc4ccc([N+](=O)[O-])cc4)c(C#N)c(-c4ccccc4)n3)sc2c1          0 (no)
6  O=C1CCC2=C3C4CCCCC4C(=O)C4CCCC(OC2C1)C34 (stereo not drawn)         1 (yes)
7                CCn1c(C)nc2cc(C(N)=O)ccc21          0 (no)

Alright, here's another compound for you.
Input: Name the outcome recorded for `Cc1ccc(C(=O)CSc2nc(-c3ccc(Br)cc3)c(C#N)c(=O)[nH]2)cc1` in the assay.
Output: 0 (no)

* * *

Test system: SF-268 CNS
protocol_notes: NCI-60 one-dose screen, 48 h (100 = growth as untreated, 0 = no growth, -100 = all killed)
assay_context: 10 µM unless noted
Experimental: Cells are grown in 96 well plates and exposed to the test compound for 48 hours. Compounds are tested at a single concentration, which is 10^-5 M for most compounds. The reported endpoint is percent growth (GI% or GIPRCNT), where numbers from 0 - 100% represent growth inhibition, and numbers from -100% - 0 represent cell death. For example, a value of 40 represents 60% growth inhibition. A value of 0 means no net growth occurred over the course of the experiment. […]
This is part of a sample that, as a whole, favours compounds with a hit. Of some 83,000 tested, about 20% had one in any assay.
Items are presented alongside their recorded growth.
Numeric only. Scale: %

Solved cases (3 shown):
> print(dat)
                            chemical.smiles  property.label  unit.annotation  experimental.value
1                 CCN(CC)Cc1cccc(C(=O)OC)c1          growth                %                 104
2  C[C@H](NC(=O)[C@@H]1CSSC[C@@H](NC(=O)c2nc3ccccc3cc2O)C(=O)NCC(=O)N1C)c1ccccc1          growth                %                17.6
3  O=C1/C(=C/c2ccccc2)CCc2nc3ccccc3c(/C=C/c3ccc(Cl)cc3)c21          growth                %                87.5

Now look at this one.
Input: I'd like to know its growth. The compound in question is `NCCCNc1nc2ccccc2c2c(=O)c3cccc(Cl)c3sc12`
Output: 26.5
